In this section, each of the molecules is paired with its reported melting point.

// solved cases for melting point follow
1. N=c1sc2cc(OC(F)(F)F)ccc2n1CCS(=O)c1ccncc1 (stereo unspecified) | 194 °C
2. O=C(Nc1ccc(F)c(C(F)(F)F)c1)N1COc2cc(OCc3ccccc3)ccc21 | 144 to 146 °C
3. Nc1ncc(S(=O)c2ccc(F)cc2F)s1 (stereo unspecified) | 171 to 172 °C

**Q:** State the recorded melting point for this entry: O=C(Nc1cccc(S(=O)(=O)NCCc2ccncc2)c1)c1cnn2c(C(F)(F)F)cc(-c3ccc(C(F)(F)F)cc3)nc12
**A:** 236 °C

**Q:** State the recorded melting point for this entry: COc1ccc(CC(=O)c2c(O)c3cccnc3n(-c3ccccc3)c2=O)c(OC)c1
**A:** 200 to 202 °C

**Q:** State the recorded melting point for this entry: CN(C)C=NC(=Nc1ccccc1)N1CCOCC1
**A:** 109 to 112 °C

**Q:** State the recorded melting point for this entry: CC(C)(C)NC(=O)[C@@H]1CC(OCCCCF)CN1C(=O)[C@@H](O)[C@H](Cc1ccccc1)NC(=O)[C@H](CC(N)=O)NC(=O)OCc1ccccc1 (stereo partly specified)
**A:** 68 to 71 °C

**Q:** State the recorded melting point for this entry: CCN(C(=O)c1ccccc1-c1ccccc1)C(C)(C)c1ccccc1
**A:** 121 to 122 °C

**Q:** State the recorded melting point for this entry: Cc1nc(-c2ccc(F)cc2)c(-c2ccc(S(C)(=O)=O)cc2)o1
**A:** 158 to 159 °C

**Q:** State the recorded melting point for this entry: CCCNC(=O)C(C#N)(CC)c1ccccc1 (stereo unspecified)
**A:** 55 to 56 °C

**Q:** State the recorded melting point for this entry: Cc1ccccc1-c1nc2ccccc2n1Cc1c(F)cccc1F
**A:** 139 °C

**Q:** State the recorded melting point for this entry: CCCCOC(=O)C=C(C)C=CC=C(C)C=Cc1c(C)cc(OC)c(C)c1C
**A:** 80 to 81 °C

**Q:** State the recorded melting point for this entry: Cc1nc(NC(=O)c2ccc(OC(F)(F)F)cc2)sc1C(=O)NCc1ccccc1
**A:** 168 to 170 °C

**Q:** State the recorded melting point for this entry: Cc1nccn1CCCNC(=O)c1cc2ccccc2[nH]1
**A:** 235 to 237 °C

* * *

In this section, each of the compounds is paired with its reported melting point.

// solved cases for melting point follow
1. C=CCOc1cnc(SC)nc1 | 41 to 42 °C
2. COc1cc(Nc2c(C#N)cnc3sc(-c4ccc(CN5CCOCC5)cc4)cc23)c(Cl)cc1Cl | 106 to 108 °C
3. CN(C)c1ccc(C2(c3ccc(N(C)C)cc3N(C)C)OC(=O)c3cc(N(C)C)ccc32)cc1 (stereo unspecified) | 182 to 185 °C
4. O=C(c1c[nH]c2ncc(Br)nc12)C12CC3CC(CC(C3)C1)C2 | 279 to 280 °C
5. COc1ccc(C=C2N=C(c3ccc([N+](=O)[O-])cc3)OC2=O)cc1OC | 265 to 267 °C
6. CC(=O)Nc1ccc(OC(F)(F)F)cc1Br | 123 °C
7. CN(C)c1cc(CC(=O)O)cc(Cc2nc3c(F)c(F)cc(F)c3s2)c1 | 114 to 115 °C
8. C=C(C(=O)c1ccc(OC)c(Cl)c1Cl)C(C)C | 46 to 51 °C
9. CCCC(=O)c1cc2c(=O)cc(C(=O)OCC)[nH]c2cc1C | 173 to 175 °C
10. C#Cc1ccc(=O)oc1 | 99 to 100 °C

**Q:** State the recorded melting point for this entry: CCN1C(=O)C(C)(C)C(=O)N(C)c2cc(CN(CCn3cc(C)c4occc4c3=O)Cc3cncn3C)ccc21
**A:** 100 to 105 °C

**Q:** State the recorded melting point for this entry: O=C(NC[C@H]1CN(c2cc(F)c(N3CCC(n4ncnn4)CC3)c(F)c2)C(=O)O1)C(Cl)Cl
**A:** 160 to 162 °C

**Q:** State the recorded melting point for this entry: CN(c1cccc2cc(-c3nccs3)[nH]c12)S(=O)(=O)c1ccsc1CS(C)(=O)=O
**A:** 253 °C

**Q:** State the recorded melting point for this entry: Cc1ccnc(O)c1C#N
**A:** 230 to 232 °C

**Q:** State the recorded melting point for this entry: Cc1cc2c(s1)SCCc1cc(=O)n(-c3ccc(Cl)cc3)nc1-2
**A:** 150 to 151 °C

**Q:** State the recorded melting point for this entry: N=C(Nc1ccc(CCNCc2cccc(F)c2)cc1)c1cccs1
**A:** 130 to 131 °C

**Q:** State the recorded melting point for this entry: [N-]=[N+]=CC(=O)[C@H](O)[C@@H](O)[C@@H](O)CO
**A:** 93 to 94 °C

**Q:** State the recorded melting point for this entry: CC(=O)c1ccc(N)c(C#N)c1
**A:** 155 to 159 °C

**Q:** State the recorded melting point for this entry: Cc1ccc(NCC2CCN(C(C)C)CC2)c(C(=O)Nc2ccc(F)cn2)c1
**A:** 58 to 60 °C

**Q:** State the recorded melting point for this entry: C(=C\c1nc2ccccc2n1-c1ccncc1)/c1ccccc1
**A:** 168 to 169 °C

**Q:** State the recorded melting point for this entry: CCCCNc1nc(=O)c2c(C)nn3c2n1CC(C)=C3c1ccccc1
**A:** > 300 °C
